- Experimental Target: SAE (Homo sapiens)
- Construct: endogenous in cells; host or cells: HCT116
- Sequence (Q9UBT2 whole entry): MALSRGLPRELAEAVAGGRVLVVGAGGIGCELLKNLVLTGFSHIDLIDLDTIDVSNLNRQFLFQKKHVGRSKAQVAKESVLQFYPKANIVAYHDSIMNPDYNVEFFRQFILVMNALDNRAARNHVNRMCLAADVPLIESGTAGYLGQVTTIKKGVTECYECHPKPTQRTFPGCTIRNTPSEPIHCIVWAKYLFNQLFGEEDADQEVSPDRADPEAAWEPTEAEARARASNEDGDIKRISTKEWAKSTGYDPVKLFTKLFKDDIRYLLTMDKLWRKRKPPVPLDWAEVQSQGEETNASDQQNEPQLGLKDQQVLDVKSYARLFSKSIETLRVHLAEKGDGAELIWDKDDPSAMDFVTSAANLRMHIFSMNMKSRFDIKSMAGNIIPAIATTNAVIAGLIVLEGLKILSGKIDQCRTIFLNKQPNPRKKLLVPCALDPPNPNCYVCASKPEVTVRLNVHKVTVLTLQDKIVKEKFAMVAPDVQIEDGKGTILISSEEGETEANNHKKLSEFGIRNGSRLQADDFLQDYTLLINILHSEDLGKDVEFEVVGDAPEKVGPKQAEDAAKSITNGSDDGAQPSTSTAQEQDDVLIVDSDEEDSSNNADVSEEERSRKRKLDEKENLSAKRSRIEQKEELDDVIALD
- Sequence (Q9UBE0 whole entry, further chain): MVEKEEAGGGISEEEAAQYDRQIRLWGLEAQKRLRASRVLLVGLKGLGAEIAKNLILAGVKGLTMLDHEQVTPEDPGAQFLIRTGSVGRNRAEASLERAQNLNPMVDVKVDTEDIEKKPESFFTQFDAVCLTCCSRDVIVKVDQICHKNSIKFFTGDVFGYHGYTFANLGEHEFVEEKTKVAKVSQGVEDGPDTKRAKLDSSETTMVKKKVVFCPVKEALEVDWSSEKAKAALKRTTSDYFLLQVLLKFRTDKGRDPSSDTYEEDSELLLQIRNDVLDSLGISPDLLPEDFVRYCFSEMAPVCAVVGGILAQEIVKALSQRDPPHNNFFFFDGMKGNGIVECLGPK
- Assay Procedure: SUMO IF: in vitro inhibitory activity assay against SAE in HCT116 cells (SUMO-2/3 immunofluorescence)
- Format: cell-based
- Study Conditions: class symbols, 6 h at 37° C.
pIC50: −log10 of the molar value.
Listing: pIC50 of selected compounds

Compound: N#Cc1ccc2c(c1)[C@@]1(CCc3sc(C(=O)c4cncnc4N[C@H]4C[C@H](O)[C@@H](COS(N)(=O)=O)[C@@H]4F)cc31)OCC2 [Compound 752]
pIC50: ≥ 7.30

Compound: NS(=O)(=O)OC[C@H]1[C@H](F)[C@@H](Nc2ncncc2C(=O)c2nc3c(s2)CCC[C@@]32NCCc3ccc(Cl)cc32)C[C@@H]1O [Compound 586]
pIC50: < 6.70

Compound: Cc1sc(C(=O)c2cncnc2N[C@H]2C[C@H](O)[C@@H](COS(N)(=O)=O)[C@@H]2F)cc1[C@H]1OCCc2ccc(Cl)cc21 [Compound 989]
pIC50: < 6.70

Compound: C=Cc1sc(C(=O)c2cncnc2N[C@H]2C[C@H](O)[C@@H](COS(N)(=O)=O)[C@@H]2F)cc1C1NCCc2ccc(Cl)cc21 (stereo partly drawn) [Compound 261]
pIC50: 6.70 to 7.30

Compound: NS(=O)(=O)OC[C@H]1[C@H](F)[C@@H](Nc2ncncc2C(=O)c2cc3c(s2)OC[C@@]32NCCc3ccc(Cl)cc32)C[C@@H]1O [Compound 146]
pIC50: < 6.70

Compound: NS(=O)(=O)OC[C@H]1[C@H](F)[C@@H](Nc2ncncc2C(=O)c2cc3c(s2)CSC[C@]32NCCc3cnc(Cl)cc32)C[C@@H]1O [Compound 608]
pIC50: ≥ 7.30

The values you see were collected from patent US20260297109A1.
